- testSystem: mAChR M4 (Homo sapiens)
- Construct: expressed in transfected cells; host or cells: CHO-K1 cells stably transfected with M4 cDNA and chimeric G-protein Gqi5
- Sequence (P08173 whole entry): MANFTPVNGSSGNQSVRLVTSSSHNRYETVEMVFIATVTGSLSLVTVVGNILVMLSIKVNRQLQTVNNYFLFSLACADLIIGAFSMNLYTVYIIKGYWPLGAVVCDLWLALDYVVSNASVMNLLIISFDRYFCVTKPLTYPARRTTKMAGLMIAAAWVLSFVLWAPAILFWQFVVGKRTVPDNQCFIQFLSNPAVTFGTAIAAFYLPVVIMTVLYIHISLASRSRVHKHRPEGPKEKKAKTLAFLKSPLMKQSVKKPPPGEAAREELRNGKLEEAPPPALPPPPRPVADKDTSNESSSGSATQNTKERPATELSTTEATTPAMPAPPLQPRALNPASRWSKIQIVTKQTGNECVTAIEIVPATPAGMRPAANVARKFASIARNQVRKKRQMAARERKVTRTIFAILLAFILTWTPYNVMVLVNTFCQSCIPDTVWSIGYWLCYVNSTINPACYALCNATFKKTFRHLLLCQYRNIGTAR
- testDescription: mAChR M4 cell-based functional assay (calcium mobilization, potentiation of EC20 acetylcholine response)
- experimentalConditions: mAChR M4 cell-based functional assay; >10,000 estimated for low potency compounds without plateau; read-out: EC50
reportedProperty: EC50 (nM)

Worked set:
Query :: Which EC50 reading was recorded for the compound Cc1nnc2sc(C(=O)N3CC(C4CCCCC4)C3)c(N)c2c1C ?
Result :: 50

Query :: Which EC50 reading was recorded for the compound COc1ccc(C2(CNC(=O)c3sc4nnc(C)c(C)c4c3N)CC2)cc1 ?
Result :: 360

Query :: Which EC50 reading was recorded for the compound Cc1nnc2sc(C(=O)N3CCC(NS(=O)(=O)c4ccccc4)C3)c(N)c2c1C (centres unmarked) ?
Result :: 1300

Query :: Which EC50 reading was recorded for the compound CCCCCC(=O)N1CC(NC(=O)c2sc3nnc(C)c(C)c3c2N)C1 ?
Result :: 110

Query :: Which EC50 reading was recorded for the compound Cc1nnc2sc(C(=O)NC3CN(C(=O)Nc4ccc(OC(F)F)cc4)C3)c(N)c2c1C ?
Result :: 27

Query :: Which EC50 reading was recorded for the compound Cc1nnc2sc(C(=O)NC3CN(S(=O)(=O)c4ccccc4F)C3)c(N)c2c1C ?
Result :: 43

Query :: Which EC50 reading was recorded for the compound Cc1nnc2sc(C(=O)NCc3ccc4ccccc4c3)c(N)c2c1C ?
Result :: 80

Query :: Which EC50 reading was recorded for the compound Cc1nnc2sc(C(=O)NCc3ccc4nonc4c3)c(N)c2c1C ?
Result :: 270

1 = Cc1nnc2sc(C(=O)NCc3ccc(Br)cc3)c(N)c2c1C
2 = Cc1nnc2sc(C(=O)N3CC(NC(=O)CCc4ccccc4)C3)c(N)c2c1C
Query :: Given 1 and given 2 , which shows the smaller recorded EC50? // caller expects the label of the chosen entry
Result :: 1
(1: 18 nM, 2: 970 nM)
